We begin with a simple list: items and their reported half-life.
experiment: in vivo; conditions: CD1, mouse, po, 10 mg/kg
Description: Half life in CD1 mouse at 10 mg/kg, po
measured metric: half-life (h)

| molecule | measured metric | reported |
| --- | --- | --- |
| CC(C)(C[C@H]1CN(S(=O)(=O)c2cccc(C(F)(F)F)c2)c2cc(-c3cc(F)cc(OC(F)F)c3)ccc2O1)C(=O)O [CINTIRORGON] | half-life | 4.31 |
| O=C(O)CC[C@H]1CN(S(=O)(=O)c2cccc(C(F)(F)F)c2)c2cc(-c3cccc(F)c3Cl)ccc2O1 | half-life | 3.45 |
| O=C(O)CC[C@H]1CN(S(=O)(=O)c2cccc(C(F)(F)F)c2)c2cc(-c3ccccc3Cl)ccc2O1 | half-life | 4.44 |
| CCOc1nn2c(c1S(=O)(=O)N1C[C@H](CCC(=O)O)Oc3ccc(/C=C(\C)c4c(F)cccc4Cl)cc31)CCCC2 | half-life | 1.66 |
| O=C(O)C1(C[C@H]2CN(S(=O)(=O)c3cccc(C(F)(F)F)c3)c3cc(-c4cc(F)cc(OC(F)F)c4)ccc3O2)COC1 | half-life | 2.74 |

* * *

test: in vitro; settings: human, hepatocytes
We begin with a simple list: items and their reported hepatocyte CLint.

| mol | hepatocyte CLint / µL/min/1e6 cells |
| --- | --- |
| O=C(O)CC[C@H]1CN(S(=O)(=O)c2cccc(C(F)(F)F)c2)c2cc(-c3cc(F)ccc3Cl)ccc2O1 | 27 |
| C/C(=C\c1ccc2c(c1)N(S(=O)(=O)c1cccc(C(F)(F)F)c1)C[C@H](CCC(=O)O)O2)c1c(Cl)cccc1Cl | 23 |
| C/C(=C\c1ccc2c(c1)N(S(=O)(=O)c1cccc(C(F)(F)F)c1)C[C@H](CCC(=O)O)O2)c1ccccc1 | 22 |
| O=C(O)CC[C@H]1CN(S(=O)(=O)c2cccc(C(F)(F)F)c2)c2cc(-c3cc(F)cc(F)c3)ccc2O1 | 31 |
| O=C(O)C1(C[C@H]2CN(S(=O)(=O)c3cccc(C(F)(F)F)c3)c3cc(-c4cc(F)ccc4F)ccc3O2)CCOCC1 | 21 |
| C/C(=C\c1ccc2c(c1)N(S(=O)(=O)c1cccc(C(F)(F)F)c1)C[C@H](CCC(=O)O)O2)c1ccccc1Cl | 22 |

* * *

assay: in vitro; conditions: human, hepatocytes
measured metric: hepatocyte CLint (µL/min/1e6 cells)

| mol | reported |
| --- | --- |
| CC(C)(C[C@H]1CN(S(=O)(=O)c2cccc(C(F)(F)F)c2)c2cc(-c3cc(F)ccc3F)ccc2O1)C(=O)O | 7.7 |
| O=C(O)CC[C@H]1CN(S(=O)(=O)c2cccc(C(F)(F)F)c2)c2cc(-c3ccc(Cl)cc3)ccc2O1 | 38 |
| O=C(O)CC[C@H]1CN(S(=O)(=O)c2cccc(C(F)(F)F)c2)c2cc(-c3cccc(F)c3Cl)ccc2O1 | 26 |
| O=C(O)C1(C[C@H]2CN(S(=O)(=O)c3cccc(C(F)(F)F)c3)c3cc(-c4cccc(Cl)c4F)ccc3O2)CCOCC1 | 13 |
| CCOc1nn2c(c1S(=O)(=O)N1C[C@H](CCC(=O)O)Oc3ccc(/C=C(\C)c4c(F)cccc4Cl)cc31)CCCC2 | 15 |

* * *

assay: physchem; settings: PBS buffer, pH 7.4
Description: Solubility of the compound in pH 7.4 PBS buffer

| mol | display unit | solubility |
| --- | --- | --- |
| COc1cccc(-c2ccc3c(c2)N(S(=O)(=O)c2cccc(C(F)(F)F)c2)C[C@H](CCC(=O)O)O3)c1 | µM | 280 |
| O=C(O)CC[C@H]1CN(S(=O)(=O)c2cccc(C(F)(F)F)c2)c2cc(-c3cc(F)cc(F)c3)ccc2O1 | µM | 277 |
| O=C(O)CC[C@H]1CN(S(=O)(=O)c2cccc(C(F)(F)F)c2)c2cc(-c3cccc(F)c3Cl)ccc2O1 | µM | 247 |
| C/C(=C\c1ccc2c(c1)N(S(=O)(=O)c1cccc(C(F)(F)F)c1)C[C@H](CCC(=O)O)O2)c1ccccc1C(F)(F)F | µM | 260 |
| C/C(=C\c1ccc2c(c1)N(S(=O)(=O)c1ccc(F)c(C(F)(F)F)c1)C[C@H](CCC(=O)O)O2)c1c(F)cccc1Cl | µM | 61 |

These entries and their values trace back to ChEMBL document CHEMBL4837250.
